# test: Pharmacokinetic experiment in mouse
# test.context: plasma, po
# note: exactly 2000 ng·h/mL is not below, so it is No; use Yes for AUC(0-inf) strictly under it

Exercise: Please state whether AUC(0-inf) is below 2000 ng·h/mL for O=C(OCC1CCN(Cc2ccccc2)CC1)N1CCC(F)(CN[C@@H]2C[C@H]2c2ccccc2)CC1 (relative stereo) [Example A90]
Solution: No

Exercise: Please state whether AUC(0-inf) is below 2000 ng·h/mL for O=C(OCC1CCNCC1)N1CCC(F)(CN[C@@H]2C[C@H]2c2ccccc2)CC1 (relative stereo) [Example A43]
Solution: Yes

Exercise: Please state whether AUC(0-inf) is below 2000 ng·h/mL for O=C(OCC1CCN(Cc2ccccc2)CC1)N1CCC(F)(CN[C@@H]2C[C@H]2c2ccccc2)CC1 [(1R,2S)-A90]
Solution: No

Exercise: Please state whether AUC(0-inf) is below 2000 ng·h/mL for O=C(OCC1CCNCC1)N1CCC(F)(CN[C@@H]2C[C@H]2c2ccccc2)CC1 [(1R,2S)-A43]
Solution: No

Exercise: Please state whether AUC(0-inf) is below 2000 ng·h/mL for N[C@H]1CC[C@](F)(CNC2CC2c2ccccc2)CC1 (stereo partly shown)
Solution: Yes

Exercise: Please state whether AUC(0-inf) is below 2000 ng·h/mL for FC1(CN[C@@H]2C[C@H]2c2ccccc2)CCNCC1 (relative stereo)
Solution: Yes

Exercise: Please state whether AUC(0-inf) is below 2000 ng·h/mL for O=C(OCc1ccccc1)N1CCC(F)(CNC2CC2c2ccccc2)CC1 (stereo not shown)
Solution: No
